subject of test: SNAP-25 peptide comprising amino acids 134-197 of SEQ ID NO: 5 (human)
assay comment: SPR (BIAcore 3000), peptide on CM5 chip, antibody in flow
Each item that follows carries a reported kon.
// units = M⁻¹ s⁻¹; emit number, no label

// α-SNAP-25 monoclonal antibody 2E2A6 (antibody, V domains shown) VH: QVQLQQSDAELVKPGASVKISCRASGYTFTDHSIHWVKQQPGQGLEWIGYIFPGNGNIEYNDKFKGKATLTADKSSGTAYMQLNSLTSEDSAVYFCKRMGYWGQGTSVTVSS VL: DVLMTQTPLTLSVTIGQPASISCKSSQSLLYTNGKTYLTWLFQRPGQSPKRLIYLVSELDSGVPDRFSGSGSGTDFTLEITRVEAEDLGVYYCLQSAHFPFTFGSGTKLEIKR : kon value = 1.7e+06

Data point: α-SNAP-25 monoclonal antibody 2C9B10 (antibody, V domains shown) VH: QVKLQESGAELVKPGASVKISCKASGYTFTDHSIHWVKQKPGQGLEWIGYLFPGNGNFEYNEKFKGKATLTADKSSSTAYMHLNSLTSEDSAVYFCKKMDYWGQGTTVTVSS VL: DIQMTQSPASLSASVGETVTITCRTTENIYSYFVWSQQRQGKSPQLRVYNAKSLAEGVPSSFNVSVSGTQFSLKINSLQPEDFGTYHCQHHYGTPYTFGGGTRLEIRR ; kon = 11500

Short answer for α-SNAP-25 monoclonal antibody 3C1A5 (antibody, V domains shown) VH: QVKLQESGAELVKPGASVKISCKASGYTFTDHSIHWVKQKPGQGLEWIGYLFPGNGNFEYNEKFKGKATLTADKSSSTVYMYLNSLTSEDSAVYFCKRMGYWGQGTTVTVSS VL: DVVMTQTPLTLSVTIGQPASISCKSSQSLLNTNGKTYLTWLIQRPGQSPQRLIYLVSKLDSGVPDRFSGSGSGTDFTLKISRVEAEDLGVYYCLQSSHFPFTFGSGTKLEIKR : kon was 217000
